Hey, just so you know, these numbers are from the supplement of paper PMC7877785.

List of self-splicing fitness (ln) values.
- PROTOCOL: self-splicing fitness, log relative to wild type (ln ratio); higher = more splicing; Tetrahymena group I intron in knt gene, E. coli kanamycin selection, DiMSum; sequences stand for … in CUCUCU…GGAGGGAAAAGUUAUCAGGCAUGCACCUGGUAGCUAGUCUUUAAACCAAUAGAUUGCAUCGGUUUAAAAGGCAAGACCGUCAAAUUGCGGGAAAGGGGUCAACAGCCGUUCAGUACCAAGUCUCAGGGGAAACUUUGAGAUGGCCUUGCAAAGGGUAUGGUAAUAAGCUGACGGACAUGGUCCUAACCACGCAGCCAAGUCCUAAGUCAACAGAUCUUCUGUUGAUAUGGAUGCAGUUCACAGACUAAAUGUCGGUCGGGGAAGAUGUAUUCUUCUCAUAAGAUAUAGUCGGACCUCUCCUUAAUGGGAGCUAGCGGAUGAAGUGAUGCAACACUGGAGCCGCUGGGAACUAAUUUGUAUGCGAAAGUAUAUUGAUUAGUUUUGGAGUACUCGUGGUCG;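 also: selection with 25 µg/mL kanamycin versus none on LB agar overnight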
- MEASUREMENT CONDITIONS: 37 °C

# SEQUENCE RECORD, self-splicing fitness (ln)
rows = [
    ("CUUUAGCAAUAUUACGAGCA", -3.05),
    ("UGCUAGCAAUAUUACGAUGG", -0.47),
    ("UACGAGCAAUAUUACGAUGU", -2.46),
    ("AGAAAGCAAUAUUACGGUAU", -0.578),
    ("AAUAAGCAAUAUUACGGCAU", -0.0272),
    ("CGAUAGCAAUAUUACGAGCG", -0.453),
    ("UCAAAGCAAUAUUACGUCUA", -0.787),
    ("CCAGAGCAAUAUUACGGCAA", -2.28),
    ("CUAAAGCAAUAUUACGACCG", 0.104),
    ("AUUGAGCAAUAUUACGUUCC", -2.1),
    ("GAUCAGCAAUAUUACGACGA", 0.262),
    ("UCAAAGCAAUAUUACGCAUU", -3.34),
    ("GGACAGCAAUAUUACGUUUU", -0.21),
    ("UGAUAGCAAUAUUACGUUAG", -1.57),
    ("AAAGAGCAAUAUUACGAAGG", -2.64),
    ("AACUAGCAAUAUUACGAGGC", -2.62),
    ("CGUUAGCAAUAUUACGCGUG", -1.36),
    ("AGGUAGCAAUAUUACGGUAU", -1.07),
    ("UCGAAGCAAUAUUACGGUAA", -0.334),
    ("CUGGAGCAAUAUUACGUCAC", -2.53),
    ("CUGUAGCAAUAUUACGAAUA", -2.82),
    ("CUGCAGCAAUAUUACGCCCA", -1.31),
]
